testSystem: UniProt P51681
Sequence (P51681 whole entry): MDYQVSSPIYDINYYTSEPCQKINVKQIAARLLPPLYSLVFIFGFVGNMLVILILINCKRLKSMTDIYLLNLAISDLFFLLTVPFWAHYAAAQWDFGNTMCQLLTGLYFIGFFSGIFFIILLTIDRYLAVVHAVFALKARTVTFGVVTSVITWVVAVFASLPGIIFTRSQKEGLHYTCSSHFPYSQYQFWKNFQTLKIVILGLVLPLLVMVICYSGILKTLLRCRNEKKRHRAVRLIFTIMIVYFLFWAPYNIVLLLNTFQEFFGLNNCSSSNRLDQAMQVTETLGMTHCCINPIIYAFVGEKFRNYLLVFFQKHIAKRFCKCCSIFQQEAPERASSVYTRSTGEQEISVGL
testDescription: Inhibitory concentration for displacement of [125I]-MIP-1 alpha from recombinant human CC chemokine receptor 5 (CCR5) expressed in CHO cell
measuredParameter: IC50

Known results for molecules:
compoundString: CCn1nc(Cc2ccc(OC3CCC3)cc2)cc1C1CCN(C[C@H]2CN([C@@H](C(=O)O)C(C)(C)C)C[C@@H]2c2cccc(F)c2)CC1
IC50: 0.7 nM

compoundString: CC[C@H](C)[C@H](C(=O)O)N1C[C@H](CN2CCC(c3cc(Cc4ccc(OC)c(OC)c4)nn3CC)CC2)[C@@H](c2cccc(F)c2)C1
IC50: 1.5 nM

compoundString: CCn1nc(Cc2ccc(OC(C)C)cc2)cc1C1CCN(C[C@H]2CN([C@@H](C(=O)O)C(C)(C)C)C[C@@H]2c2cccc(F)c2)CC1
IC50: 0.7 nM

compoundString: CC[C@H](C)[C@H](C(=O)O)N1C[C@H](CN2CCC(c3cc(Cc4ccc(OCC(F)(F)F)cc4)nn3CC)CC2)[C@@H](c2cccc(F)c2)C1
IC50: 0.6 nM

compoundString: CCn1nc(Cc2ccc(F)cc2)cc1C1CCN(C[C@H]2CN([C@@H](C(=O)O)C(C)C)C[C@@H]2c2cccc(F)c2)CC1
IC50: 1.1 nM

compoundString: CCn1nc(Cc2ccc(F)c(F)c2)cc1C1CCN(C[C@H]2CN([C@@H](C(=O)O)C(C)C)C[C@@H]2c2cccc(F)c2)CC1
IC50: 1.1 nM

compoundString: CCn1nc(Cc2ccc(OC(F)(F)F)cc2)cc1C1CCN(C[C@H]2CN([C@@H](C(=O)O)C(C)(C)C)C[C@@H]2c2cccc(F)c2)CC1
IC50: 0.6 nM

compoundString: CC[C@@H](C)[C@H](C(=O)O)N1C[C@H](CN2CCC(c3cc(Cc4ccc(C#N)cc4)nn3CC)CC2)[C@@H](c2cccc(F)c2)C1
IC50: 1.3 nM

compoundString: CCn1nc(Cc2ccc(O)cc2)cc1C1CCN(C[C@H]2CN([C@@H](C(=O)O)C(C)C)C[C@@H]2c2cccc(F)c2)CC1
IC50: 0.6 nM

compoundString: CCn1nc(Cc2ccc(C#N)cc2)cc1C1CCN(C[C@H]2CN([C@@H](C(=O)O)C(C)C)C[C@@H]2c2cccc(F)c2)CC1
IC50: 3.1 nM

Reported IC50, molecule CC[C@H](C)[C@H](C(=O)O)N1C[C@H](CN2CCC(c3cc(Cc4ccc(C)cc4)nn3CC)CC2)[C@@H](c2cccc(F)c2)C1 : ____
0.3 nM

How about this molecule: CCn1nc(Cc2ccc(S(C)(=O)=O)cc2)cc1C1CCN(C[C@H]2CN([C@@H](C(=O)O)C(C)C)C[C@@H]2c2cccc(F)c2)CC1
3.5 nM

How about this molecule: CC[C@@H](C)[C@H](C(=O)O)N1C[C@H](CN2CCC(c3cc(Cc4ccc(OC(F)F)cc4)nn3CC)CC2)[C@@H](c2cccc(F)c2)C1
0.6 nM

How about this molecule: CCn1nc(Cc2ccc(C(F)(F)F)cc2)cc1C1CCN(C[C@H]2CN([C@@H](C(=O)O)C(C)(C)C)C[C@@H]2c2cccc(F)c2)CC1
0.3 nM

How about this molecule: CCCOc1ccc(Cc2cc(C3CCN(C[C@H]4CN([C@@H](C(=O)O)C5CCCCC5)C[C@@H]4c4cccc(F)c4)CC3)n(CC)n2)cc1
0.7 nM

How about this molecule: CC[C@H](C)[C@H](C(=O)O)N1C[C@H](CN2CCC(c3cc(Cc4ccc(OC(C)C)cc4)nn3CC)CC2)[C@@H](c2cccc(F)c2)C1
0.8 nM

Where do these numbers come from? They come from ChEMBL document CHEMBL1147446.
